# Target desc: EPHB1 (UniProt P54762)
# Sequence (P54762 whole entry, looked up): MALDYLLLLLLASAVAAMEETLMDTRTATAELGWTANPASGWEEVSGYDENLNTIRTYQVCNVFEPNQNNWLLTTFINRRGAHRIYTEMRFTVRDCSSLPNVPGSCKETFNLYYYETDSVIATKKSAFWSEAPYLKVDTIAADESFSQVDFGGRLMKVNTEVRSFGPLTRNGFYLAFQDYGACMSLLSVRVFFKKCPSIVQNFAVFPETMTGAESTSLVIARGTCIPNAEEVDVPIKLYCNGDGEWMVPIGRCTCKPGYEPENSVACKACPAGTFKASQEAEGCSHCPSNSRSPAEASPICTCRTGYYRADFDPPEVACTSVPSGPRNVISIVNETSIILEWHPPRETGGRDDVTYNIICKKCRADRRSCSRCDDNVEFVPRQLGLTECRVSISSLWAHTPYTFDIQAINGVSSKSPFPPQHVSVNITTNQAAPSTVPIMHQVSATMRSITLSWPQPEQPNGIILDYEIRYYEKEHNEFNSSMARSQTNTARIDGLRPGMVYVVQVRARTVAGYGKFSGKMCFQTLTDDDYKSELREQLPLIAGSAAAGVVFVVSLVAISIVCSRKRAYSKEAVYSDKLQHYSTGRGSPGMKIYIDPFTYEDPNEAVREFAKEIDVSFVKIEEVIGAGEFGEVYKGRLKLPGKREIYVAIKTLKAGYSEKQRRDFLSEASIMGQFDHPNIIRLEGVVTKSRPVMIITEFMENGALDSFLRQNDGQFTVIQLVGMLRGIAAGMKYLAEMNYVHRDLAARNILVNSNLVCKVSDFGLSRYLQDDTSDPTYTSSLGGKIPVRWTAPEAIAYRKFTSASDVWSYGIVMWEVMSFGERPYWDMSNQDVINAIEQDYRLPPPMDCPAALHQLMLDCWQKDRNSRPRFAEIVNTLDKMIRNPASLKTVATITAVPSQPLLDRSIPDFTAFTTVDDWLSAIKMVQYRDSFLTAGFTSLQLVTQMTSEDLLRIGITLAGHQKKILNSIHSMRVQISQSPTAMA
# Protocol: phosphorylation enrichment, bacterial display (enrichment ratio); higher = better substrate or ligand; peptides without Tyr show the background;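 further: 11-residue human phosphosite peptides and single-mutation variants displayed on the E. coli surface, counted by deep sequencing, each peptide's frequency after selection divided by its frequency in the unselected input library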;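 further: frequency after pTyr selection over input frequency; kinase dosed for 20-30% of maximal phosphorylation in three min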
Quantity kind: phosphorylation enrichment
Just the number, please, no unit after it.

Field phosphorylation enrichment (entry KFANSYRMEPL [TCTE3_Y87] ) reads 0.43

What the record says about FADIAYNYRDG [PAH_Y166_H170D] : phosphorylation enrichment is 0.404

Query VLVSQYEKLDA [AMZ2_Y26_N30D] yields phosphorylation enrichment of 0.561

# phosphorylation enrichment of PATINYPFEKG [NDUFS8_Y84] = 0.65

The measured phosphorylation enrichment associated with TQNAVYSAANF [DDX5_Y535_G533A_YF] reads 3.15

Given item QLCVNYPGGYT [PROS1_Y259] , the value recorded as its phosphorylation enrichment is 1.32

Input HSPLRYTSILT [OR51B6_Y130_R125H] . Output phosphorylation enrichment: 0.782

// recorded phosphorylation enrichment for FKEQGYHRLPS [RIN1_Y681_P686S_YF] : 1.26

phosphorylation enrichment in this record for LRRREYQRQDY [PRKRIP1_Y90] : 0.706

Quick note, phosphorylation enrichment for IIRQLYLKWHP [SACS_Y4333_R4331Q] landed at 0.469

phosphorylation enrichment in this record for ETLLYYGCRRS [POR_Y564] : 0.63

Summary for this sequence, RLRVVYPWTQR [HBB_Y36_L33R] : phosphorylation enrichment is 0.367

Form: sequence = YSGDCYRIQGR [DDR2_Y741_Y740C] ; phosphorylation enrichment = 0.468

Form: sequence = NHFKIYNLCAE [PTEN_Y68_YF] ; phosphorylation enrichment = 0.412

====

# Tested on: Fer (mouse)
# Protocol: phosphorylation enrichment, bacterial display (enrichment ratio); higher = better substrate or ligand; peptides without Tyr show the background
Quantity kind: phosphorylation enrichment
Hey, just send me the number, nothing else.

Data point: NWGSPYKSNGC [ZNF347_Y261] ; phosphorylation enrichment = 0.48

Noted for CERLPYDASKW [FLT1_Y815] : its phosphorylation enrichment reads 0.49

Reported phosphorylation enrichment ( KTNVSYFGALD [CACNB4_Y103_C104F] ) = 0.464

LKMLVYMDMSK [LRRC7_Y234_L235M] has a reported phosphorylation enrichment of 0.842

Given item LDLSYYHTSSS [EMD_Y182_P183H] , the value recorded as its phosphorylation enrichment is 0.451

IHRWVYPLTPE [EIF2B5_Y319_R315H] has a reported phosphorylation enrichment of 0.405

According to the records, this sequence CGLPRYRWLTH [TSPAN12_Y143_Y138C] displays phosphorylation enrichment of 0.438

Value of measured phosphorylation enrichment for the entry TGVRDYIHVVD [GALE_Y241] : 0.413

For record NARGLYFKLHN [GATA2_Y376_C373R_YF] the listed phosphorylation enrichment is 0.657

Reported phosphorylation enrichment ( ARIVDYNIIGW [MYH7_Y588_G584R] ) = 0.406

So, SREDIYKRNTE [PDE4DIP_Y45_I49T] ? Its phosphorylation enrichment was 0.463

# phosphorylation enrichment (sequence: LNPFIYSLRNR [OR1A1_Y288] ) is 0.6

Sure, the documented phosphorylation enrichment for SVTCMYSPALN [TP53_Y126_T125M] is 0.667

The sequence identified as PTDSVYVMPTV [MYO7A_Y1668] registered its phosphorylation enrichment at 0.77

phosphorylation enrichment measured on TLERHYEELQA [SPTBN2_Y834] = 1.7

get_value(item= GYYDLYGGEKF [PTPN11_Y66_D61G] , readout=phosphorylation enrichment) returns 3.13

NRVEIYEKTVE [CYFIP1_Y108] has a reported phosphorylation enrichment of 0.582

GET /value?item= CFVFFYSFLLK [PTEN_Y178_R173C_YF] &field=phosphorylation enrichment returns 0.487

The sequence SRGHQYQELPR [KCNH2_Y1009_R1007H] showed phosphorylation enrichment equal to 0.413

Short answer for LWQSIYNLEAE [TNNT2_Y251] : phosphorylation enrichment was 0.544

Briefly, phosphorylation enrichment measured for QLCVNYPGGYT [PROS1_Y259] : 0.811

sequence LGGAMYYLEAD [PKHD1_Y452_E457D] , phosphorylation enrichment observed: 0.664

Entry APRKVYDTRDD [ZFPL1_Y215] , phosphorylation enrichment reported as 0.403

phosphorylation enrichment measured on KGELRYMHSPV [ABCD1_Y281_R285P] = 0.315

# phosphorylation enrichment of PVDVAYRHGFF [PLEC_Y2967_R2969H_YF] = 0.342

The recorded phosphorylation enrichment for entry PFQGAYLKINK [MYO1B_Y967_E969K] equals 0.853

The recorded phosphorylation enrichment for entry RRGMPYGGHGD [TGM1_Y312_R315H] equals 0.582

Recorded result, RTMPDYTSFNT [EPHB2_Y912_I909M] , phosphorylation enrichment: 0.705

NKYVAYIESQG [KDM4B_Y34] has a reported phosphorylation enrichment of 0.422

====

Provide the reported phosphorylation enrichment of each item.
# Target desc: Fyn (UniProt P06241)
# Sequence (P06241 whole entry, looked up): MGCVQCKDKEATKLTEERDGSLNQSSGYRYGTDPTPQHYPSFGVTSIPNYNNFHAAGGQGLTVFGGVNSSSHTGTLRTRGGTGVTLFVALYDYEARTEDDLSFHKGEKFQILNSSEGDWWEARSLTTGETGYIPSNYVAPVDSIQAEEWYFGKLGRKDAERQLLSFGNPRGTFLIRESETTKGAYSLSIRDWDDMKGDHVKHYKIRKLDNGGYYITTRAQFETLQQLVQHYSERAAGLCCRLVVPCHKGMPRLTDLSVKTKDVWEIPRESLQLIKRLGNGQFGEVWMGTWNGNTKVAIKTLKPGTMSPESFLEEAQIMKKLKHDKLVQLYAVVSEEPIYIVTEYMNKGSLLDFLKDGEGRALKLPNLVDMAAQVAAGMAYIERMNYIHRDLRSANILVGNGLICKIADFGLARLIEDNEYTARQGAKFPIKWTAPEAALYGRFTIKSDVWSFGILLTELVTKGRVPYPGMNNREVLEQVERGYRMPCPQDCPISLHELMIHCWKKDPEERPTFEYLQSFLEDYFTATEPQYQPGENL
# Protocol: phosphorylation enrichment, bacterial display (enrichment ratio); higher = better substrate or ligand; peptides without Tyr show the background

The value of phosphorylation enrichment measured for the sequence GESQGYDIMEP [MSH2_Y863] turned out to be 0.454

// GLTSTYVGIRK [ROBO1_Y932_A933V] : phosphorylation enrichment value = 0.528

Recorded result, HSPLRYTSILT [OR51B6_Y130_R125H] , phosphorylation enrichment: 0.823

The sequence IFHLSYIHNCE [PDE6B_Y227_L228I_YF] showed phosphorylation enrichment equal to 0.494

So, CASQLCPRHKH [DCTN4_Y263_Y263C] ? Its phosphorylation enrichment was 0.366

Input LDLSYYHTSSS [EMD_Y182_P183H] . Output phosphorylation enrichment: 0.509

Reported phosphorylation enrichment of RALLNYIASKF [GSTA3_Y74_I71L_YF] : 0.385

RRNEEYCLLDS [ITK_Y198] yielded phosphorylation enrichment of 1.7

Noted for PTKNDYWAMLA [WWOX_Y287] : its phosphorylation enrichment reads 0.695

phosphorylation enrichment measured on GSERRYTREGG [PTPRN2_Y139_S140T] = 0.319

Entry PGGNIYISPLK [RB1_Y805] , phosphorylation enrichment reported as 0.804

WVYNHYRWIIW [BRCA2_Y2624] yielded phosphorylation enrichment of 0.375

According to the records, this sequence LGSNTYPFLLT [SAG_Y120] displays phosphorylation enrichment of 0.505

For reference, reported phosphorylation enrichment for FADIAYNFRHA [PAH_Y166_G171A_YF] stands at 0.497

The measured phosphorylation enrichment associated with IDFARYWHGND [MMP11_Y162_D166N] reads 0.431

The recorded phosphorylation enrichment for PTYENYANSTQ [SLC12A3_Y70_H69N] is 4.03

sequence NQDRTYYESVR [SPEN_Y632] , phosphorylation enrichment observed: 1.4

Measured phosphorylation enrichment, CPPELYALMSD [ZAP70_Y569] : 0.612

phosphorylation enrichment recorded for this sequence, RNVFFYSFLLK [PTEN_Y178_Y174N_YF] , is 0.656

Input GKGGSYSQAAS [HLA-B_Y344_C349S] . Output phosphorylation enrichment: 0.362

Record ARIVDYNIIGW [MYH7_Y588_G584R] , field phosphorylation enrichment: 0.545

Note to self: phosphorylation enrichment recorded for KDHPDYKYQAR [SOX10_Y171_P175A] was 0.434

Form field phosphorylation enrichment, entry PSPMPYAFCQM [FOXL2_Y215_S217F] : 0.706

phosphorylation enrichment in this record for HFVDEYDQTIE [KRAS_Y32_P34Q] : 0.897

Input KQNSLYSFSDH [CCDC82_Y331] . Output phosphorylation enrichment: 5.24

Reported phosphorylation enrichment for LGGAMYFLEAD [PKHD1_Y452_E457D_YF] was 0.717

# sequence FAELVYTGFWH [ASS1_Y322] ; its phosphorylation enrichment = 8.14

Lab note: measured phosphorylation enrichment of HIAKGYRRDNP [HARS1_Y156_V155G] was 0.427

The reported phosphorylation enrichment of the sequence HEVHIYENSGA [ARPC1B_Y35_K37N] was 1.04

====

# Target desc: Fyn (UniProt P06241)
# Protocol: phosphorylation enrichment, bacterial display (enrichment ratio); higher = better substrate or ligand; peptides without Tyr show the background
Kindly state phosphorylation enrichment for each of the entries shown.
Please give only the number in your answer, with no unit.

Documented phosphorylation enrichment of CFVFFYSFLLK [PTEN_Y178_R173C_YF] : 0.459

phosphorylation enrichment reading for DAVAVYDGKIS [SH2D1A_Y7_H8D] : 0.655

Short answer for DFFDLYGGEKK [PTPN11_Y66_F71K_YF] : phosphorylation enrichment was 1.32

Notebook: RLLRGHDQFAF [HLA-B_Y137_YF] , phosphorylation enrichment read as 0.289

The reported phosphorylation enrichment of the sequence KTSGNYLAVTG [WDR19_Y28] was 0.536

Quick note, phosphorylation enrichment for YRKNTYNVKST [SYNE2_Y575_I574T] landed at 0.344

Form field phosphorylation enrichment, entry EKKKKYMLPLD [DNM2_Y563_E560K] : 0.604

These data points were gathered from the supplement of paper PMC10065799.
